Values compiled from patent US20180362616A1.

Molecular target: human Kallikrein-6 (human, UniProt Q92876 22-244)
Assay: SPR, APPI held on nickel chip by its His tag, hK6 as analyte, 25° C.
pKd: −log10 of the molar value.
Below, each entry is listed alongside its reported pKd.

binder	pKd
APPI-WT (SEQ ID NO: 25), soluble, expressed in Pichia pastoris (other, Secreted from P. pastoris GS115, purified by nickel IMAC and gel filtration; also called WT APPI; not shown: N-terminal FLAG tag with the SnaBI/EcoRI-coded residues, and the C-terminal AvrII-coded residues plus His6) EVCSEQAETGPCRAMISRWYFDVTEGKCAPFFYGGCGGNRNNFDTEEYCMAVCGSAI	8.10
APPIM17L,I18F,S19F,F34V (SEQ ID NO: 13), soluble (designed binder, also called APPI 3M G17L,S19F; not shown: His tag at the C-terminal) EVCSEQAETGPCRALFFRWYFDVTEGKCAPFVYGGCGGNRNNFDTEEYCMAVCGSAI	9.45
